Numbers sourced from patent US10730851B2.

Reported pH in clear solution values for a set of molecules
RUN_DESCRIPTION: Dynamic solubility test in water, SGF, FeSSIF, FaSSIF
Type: physicochemical
MEASUREMENT_CONTEXT: Water, Time 2; dihydrochloride
Counter-ions that a name gives are not always drawn.
In your answer, state the number alone without any accompanying words.

>>> reported_result("CC1CCN(C(=O)c2ccc([C@H](c3cccc(O)c3)N3C[C@@H](C)N(Cc4cccc(F)c4)C[C@@H]3C)cc2)CC1 [Polymorph form F, dihydrochloride]")
1.9

Asked: Report pH in clear solution for CC1CCN(C(=O)c2ccc([C@H](c3cccc(O)c3)N3C[C@@H](C)N(Cc4cccc(F)c4)C[C@@H]3C)cc2)CC1 [Polymorph form B, dihydrochloride] please.
Given back: 1.8

Asked: Consider the molecule CC1CCN(C(=O)c2ccc([C@H](c3cccc(O)c3)N3C[C@@H](C)N(Cc4cccc(F)c4)C[C@@H]3C)cc2)CC1 [Polymorph form P, dihydrochloride] and give its measured pH in clear solution.
Given back: 1.9

Asked: Item CC1CCN(C(=O)c2ccc([C@H](c3cccc(O)c3)N3C[C@@H](C)N(Cc4cccc(F)c4)C[C@@H]3C)cc2)CC1 [Polymorph form O, dihydrochloride] has what recorded pH in clear solution?
Given back: 1.8

Asked: May I ask what pH in clear solution has been recorded for CC1CCN(C(=O)c2ccc([C@H](c3cccc(O)c3)N3C[C@@H](C)N(Cc4cccc(F)c4)C[C@@H]3C)cc2)CC1 [Polymorph form J, dihydrochloride] ?
Given back: 1.7
